Origin of the recorded values: the supplement of paper PMC13380429

- Tested on: Vero E6 infected with SARS-CoV-2
- assay-remarks: inhibition of SARS-CoV-2 cytopathic effect; higher = more antiviral protection, active = above 15
- measurement-context: 1 nM; 48 h
readout-kind: inhibition of SARS-CoV-2 cytopathic effect (%)
Write down the numeric answer in % and omit the unit.

| compound | unit-info | observed-result |
| --- | --- | --- |
| C[N+](C)(C)NCCC(=O)O | % | -1.15 |
| c1ccc(C(NCc2cccnc2)(c2ccccc2)c2ccccc2)cc1 | % | 1.69 |
| CO[C@@]12[C@H](COC(N)=O)C3=C(C(=O)C(C)=C(N)C3=O)N1C[C@@H]1N[C@@H]12 | % | -6.42 |

inhibition of SARS-CoV-2 cytopathic effect recorded for this compound, COc1ccc2c(C)nc(Nc3nc(C)c(C)c(O)n3)nc2c1 , is -1.29

COc1nccnc1NS(=O)(=O)c1ccc(N)cc1 yielded inhibition of SARS-CoV-2 cytopathic effect of -1.43

Sample N[C@H]1C(O)O[C@H](CO)[C@@H](O)[C@@H]1O (mixture of isomers) ; inhibition of SARS-CoV-2 cytopathic effect observed: 3.44

The value of inhibition of SARS-CoV-2 cytopathic effect measured for the compound Clc1ccc(C2=CCC[C@H]3CC[C@@H]2N3)cn1 turned out to be -2.02

Form field inhibition of SARS-CoV-2 cytopathic effect, entry c1ccc(C2CC2)c(OCC2=NCCN2)c1 : -0.75

Value of measured inhibition of SARS-CoV-2 cytopathic effect for the entry CC(C)Oc1cccc(CC(=O)N2CCC[C@](CC[N+]34CCC(c5ccccc5)(CC3)CC4)(c3ccc(Cl)c(Cl)c3)C2)c1 : 1.67

Summary for this compound, CC(C)(O)C(Cl)(Cl)Cl : inhibition of SARS-CoV-2 cytopathic effect is 0.34
